- System name: CYP3A4 (Homo sapiens, UniProt P08684)
- Sequence (P08684 whole entry): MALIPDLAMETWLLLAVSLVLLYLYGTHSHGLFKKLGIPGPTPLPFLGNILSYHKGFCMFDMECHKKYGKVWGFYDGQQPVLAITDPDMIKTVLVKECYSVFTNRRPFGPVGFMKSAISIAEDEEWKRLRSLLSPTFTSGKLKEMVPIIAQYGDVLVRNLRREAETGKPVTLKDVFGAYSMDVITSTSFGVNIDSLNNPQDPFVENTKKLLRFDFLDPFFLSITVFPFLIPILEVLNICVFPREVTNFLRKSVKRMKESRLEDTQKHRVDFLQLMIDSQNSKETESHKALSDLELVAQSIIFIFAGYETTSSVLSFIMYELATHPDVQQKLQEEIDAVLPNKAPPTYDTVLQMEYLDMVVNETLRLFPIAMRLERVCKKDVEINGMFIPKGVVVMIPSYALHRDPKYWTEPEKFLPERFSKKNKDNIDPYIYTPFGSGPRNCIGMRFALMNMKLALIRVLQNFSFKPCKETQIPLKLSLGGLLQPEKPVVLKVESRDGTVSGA
- Assay remarks: CYP inhibition CYP3A4 (CEREP)
- Assay type: in vitro ADME
- Experimental parameters: human, recombinant CYP3A4, probe 7-benzyloxy-4-trifluoromethylcoumarin, single concentration (typically 10 μM), read-out: CYP 3A4 (% inhibition of Control)
Property: inhibition at 10 µM
Please report the result as a number followed by the unit.

INSERT INTO results (compound, readout_value) VALUES
  ('Cc1ccc(C(NC(=O)Cc2ccc3[nH]cc(CCC(=O)O)c3c2)c2ccccc2)c(N2CCCCC2)c1 (centres unmarked) [Cpd. 77]', '31.3%'),
  ('Cc1ccc(C(NC(=O)Cc2ccc3[nH]cc(CCC(=O)O)c3c2)c2ccccc2)c(N(C)C)c1 (centres unmarked) [Cpd. 192]', '30.9%'),
  ('O=C(O)CCCc1c[nH]c2ccc(CC(=O)NC(c3ccccc3)c3ccccc3N3CCCCC3)cc12 (centres unmarked) [Cpd. 212]', '31%');

*Q* Bench note: what inhibition at 10 µM did COc1ccc(C(NC(=O)Cc2ccc3[nH]cc(CCC(=O)O)c3c2)c2ccccc2)c(N2CCCCC2)c1 (centres unmarked) [Cpd. 111] show?
*A* 40.1%

*Q* Can you look up the measured inhibition at 10 µM of O=C(O)CCc1c[nH]c2ccc(CC(=O)NC(c3cccc(F)c3)c3ccccc3N3CCCCC3)cc12 (centres unmarked) [Cpd. 3] for me?
*A* 60.9%

*Q* # query: inhibition at 10 µM of entry Cc1ccc(C(NC(=O)Cc2ccc3[nH]cc(CCC(=O)O)c3c2)c2ccccc2)c(N2CCCC2)c1 (centres unmarked) [Cpd. 5]
*A* 25.8%

*Q* Query: inhibition at 10 µM; subject: O=C(O)CCc1c[nH]c2ccc(CC(=O)NC(c3ccccc3)c3ccc(C(F)(F)F)cc3N3CCCC3)cc12 (centres unmarked) [Cpd. 48]
*A* 33.7%

*Q* What value of inhibition at 10 µM has been reported for the following compound? Cc1ccc(C(NC(=O)Cc2ccc3oc(C(O)c4c(C)noc4C)cc3c2)c2ccccc2)c(C)c1 (single isomer, unassigned) [Cpd. T-4, reference compound]
*A* 82%

---

- System name: RORγt ligand-binding domain (RORγt-LBD) (Homo sapiens, UniProt P51449)
- Construct: 20 nM recombinantly expressed RORγ-LBD fused to GST
- Sequence (P51449 269-508 limits assumed): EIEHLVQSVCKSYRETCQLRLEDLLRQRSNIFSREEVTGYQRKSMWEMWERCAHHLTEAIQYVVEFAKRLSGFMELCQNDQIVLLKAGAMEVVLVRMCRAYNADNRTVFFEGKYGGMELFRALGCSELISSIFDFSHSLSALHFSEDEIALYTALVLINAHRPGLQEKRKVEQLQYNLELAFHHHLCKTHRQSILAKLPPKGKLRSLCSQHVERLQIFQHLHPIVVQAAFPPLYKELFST
- Assay remarks: Time-resolved FRET (TR-FRET) RORγt coactivator assay
- Experimental parameters: GST-RORγ-LBD, biotinylated RIP140 peptide, coactivator displacement
pIC50: −log10 of the molar value.
Property: pIC50

Use these answered entries as a reference point.
INSERT INTO results (molecule, property, readout_value) VALUES
  ('Cc1cnc(C(NC(=O)Cc2ccc3[nH]cc(CCC(=O)O)c3c2)c2ccccc2N2CCCCC2)s1 (stereo not shown)', 'pIC50', '> 6.00'),
  ('Cc1ccc(C(NC(=O)Cc2ccc3[nH]cc(CC(=O)N(C)C)c3c2)c2ccccc2)c(N2CCOCC2)c1 (stereo not shown)', 'pIC50', '> 6.00'),
  ('Cc1ccc(C(NC(=O)Cc2ccc3[nH]cc(CCC(=O)OC(C)(C)C)c3c2)c2ncccn2)c(Br)c1 (stereo not shown)', 'pIC50', '> 6.00'),
  ('O=C(O)CCc1c[nH]c2ccc(CC(=O)NC3(c4ccccc4N4CCCC4)CCCC3)cc12', 'pIC50', '> 6.00'),
  ('Cc1ccc(F)c(C(NC(=O)Cc2ccc3[nH]cc(CCC(=O)O)c3c2)c2ccccc2)c1 (stereo not shown)', 'pIC50', '5.00 to 6.00'),
  ('Cc1ccc(C(NC(=O)Cc2ccc3[nH]cc(CCC(=O)OC(C)(C)C)c3c2)c2ccccc2)c2[nH]ccc12 (stereo not shown)', 'pIC50', '5.00 to 6.00');

*Q* Given CN(C)c1ccccc1C(NC(=O)Cc1ccc2[nH]cc(CCC(=O)O)c2c1)c1ccccc1 (stereo not shown) , state its recorded pIC50.
*A* > 6.00

---

- System name: human RORγt (Homo sapiens, UniProt P51449)
- Sequence (P51449 1-497 isoform P51449-2): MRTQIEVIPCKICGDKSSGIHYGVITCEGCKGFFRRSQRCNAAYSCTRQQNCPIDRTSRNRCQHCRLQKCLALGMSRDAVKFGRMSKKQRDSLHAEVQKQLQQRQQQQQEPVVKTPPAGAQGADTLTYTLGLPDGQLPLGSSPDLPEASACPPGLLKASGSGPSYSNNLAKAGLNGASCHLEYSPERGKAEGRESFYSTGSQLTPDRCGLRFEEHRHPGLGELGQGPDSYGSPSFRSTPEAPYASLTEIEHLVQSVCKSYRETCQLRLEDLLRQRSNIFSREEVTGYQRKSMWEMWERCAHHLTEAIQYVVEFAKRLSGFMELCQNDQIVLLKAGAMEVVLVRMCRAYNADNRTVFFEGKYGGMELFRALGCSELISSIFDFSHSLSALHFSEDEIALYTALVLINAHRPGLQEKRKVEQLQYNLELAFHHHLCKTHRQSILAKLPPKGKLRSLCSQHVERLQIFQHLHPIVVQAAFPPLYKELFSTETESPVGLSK
- Assay remarks: IL-17 secretion from EL4 murine lymphoma overexpressing human RORγt
- Type: cell-based
- Set-up: expressed in transfected cells; host or cells: EL-4 murine lymphoma
- Experimental parameters: IL-17 secretion inhibition, PMA and ionomycin stimulation, 24 h
Property: IC50

INSERT INTO assay_data (molecule, system_name, readout_value) VALUES
  ('COc1ccc(C(NC(=O)Cc2ccc3[nH]cc(CCC(=O)O)c3c2)c2ccccc2)c(N2CCCCC2)c1 (stereo not drawn)', 'human RORγt (Homo sapiens, UniProt P51449)', '1 to 10 µM'),
  ('O=C(O)CCc1c[nH]c2ccc(CC(=O)NC(c3ccccc3)c3ccc(Br)cc3N3CCCC3)cc12 (stereo not drawn)', 'human RORγt (Homo sapiens, UniProt P51449)', '< 1 µM'),
  ('COc1ccc(C(NC(=O)Cc2ccc3[nH]cc(CCC(=O)O)c3c2)c2ccccc2)c(N2CCCC2)c1 (stereo not drawn)', 'human RORγt (Homo sapiens, UniProt P51449)', '1 to 10 µM'),
  ('Cc1ccc(C(NC(=O)Cc2ccc3[nH]cc(CCC(=O)O)c3c2)c2ccccc2)c(OC(C)C)c1 (stereo not drawn)', 'human RORγt (Homo sapiens, UniProt P51449)', '1 to 10 µM');

*Q* # get_value(readout='IC50', item= Cc1ccc(C(NC(=O)Cc2ccc3[nH]cc(CCC(=O)O)c3c2)c2ccccc2)c2ccccc12 (stereo not drawn) )
*A* 10 to 30 µM

*Q* Fill in the blank: the reported IC50 of O=C(O)CCc1c[nH]c2ccc(CC(=O)NC3(c4ccccc4N4CCCCC4)CCCCC3)cc12 is ____.
*A* 1 to 10 µM

---

- System name: CYP3A4 (Homo sapiens, UniProt P08684)
- Assay remarks: CYP inhibition CYP3A4 (CEREP)
- Type: in vitro ADME
- Experimental parameters: human, recombinant CYP3A4, probe 7-benzyloxy-4-trifluoromethylcoumarin, single concentration (typically 10 μM), read-out: CYP 3A4 (% inhibition of Control)
Property: inhibition at 10 µM (%)
Express your answer in %, writing the number without its unit.

Reference set (2 entries):
INSERT INTO results (compound, property, readout_value) VALUES
  ('O=C(O)CCc1c[nH]c2ccc(CC(=O)NC(c3ccccc3)c3ccccc3N3CCCCC3)cc12 (stereo not drawn)', 'inhibition at 10 µM', 19),
  ('CC(C)CC(NC(=O)Cc1ccc2[nH]cc(CCC(=O)O)c2c1)c1ccccc1N1CCCCC1 (stereo not drawn)', 'inhibition at 10 µM', 47.2);

Shifting focus to the compound that follows.
*Q* What does the record list as inhibition at 10 µM for O=C(O)CCc1c[nH]c2ccc(CC(=O)NC(c3ccccc3)c3ccc(Br)cc3N3CCCC3)cc12 (stereo not drawn) ?
*A* 36.8

---

- Assay remarks: Microsomal stability, human microsomes (CEREP)
- Type: in vitro ADME
- Experimental parameters: 0.1 μM, 0.1 mg/mL microsomal protein
Readings of Human microsomes (% Cpd. remaining at 60 min) for the listed compounds
Kindly answer with a numeric value in %, unit omitted.

INSERT INTO measurements (compound, readout_value) VALUES
  ('O=C(O)CCc1c[nH]c2ccc(CC(=O)NC(c3cccc(F)c3)c3ccccc3N3CCCCC3)cc12 (stereo not shown)', 36),
  ('Cc1ccc(C(NC(=O)Cc2ccc3oc(C(O)c4c(C)noc4C)cc3c2)c2ccccc2)c(C)c1 (single isomer, unassigned) [Cpd. T-4, reference compound]', 0),
  ('O=C(O)CCc1c[nH]c2ccc(CC(=O)NC(c3ccccc3)c3ccc(Br)cc3N3CCCC3)cc12 (stereo not shown)', 92);

*Q* Bench note: what Human microsomes (% Cpd. remaining at 60 min) did Cc1ccc(C(NC(=O)Cc2ccc3oc(C(O)c4c(C)noc4C)cc3c2)c2ccccc2)c(C)c1 (single isomer, unassigned) [Cpd. T-3, reference compound] show?
*A* 0

*Q* Given the compound Cc1ccc(C(NC(=O)Cc2ccc3[nH]cc(CCC(=O)O)c3c2)c2ccccc2)c(N2CCCCC2)c1 (stereo not shown) , what is its reported Human microsomes (% Cpd. remaining at 60 min)?
*A* 88

*Q* Looking for the measured Human microsomes (% Cpd. remaining at 60 min) of O=C(O)CCc1c[nH]c2ccc(CC(=O)NC(c3ccccc3)c3ccc(C(F)(F)F)cc3N3CCCC3)cc12 (stereo not shown) , can you help?
*A* 83

*Q* So what does the record say about Human microsomes (% Cpd. remaining at 60 min) for Cc1ccc(C(NC(=O)Cc2ccc3[nH]cc(CCC(=O)O)c3c2)c2ccccc2)c(N2CCCC2)c1 (stereo not shown) ?
*A* 89

---

- System name: RORγt ligand-binding domain (RORγt-LBD) (Homo sapiens, UniProt P51449)
- Construct: 20 nM recombinantly expressed RORγ-LBD fused to GST
- Assay remarks: Time-resolved FRET (TR-FRET) RORγt coactivator assay
- Experimental parameters: GST-RORγ-LBD, biotinylated RIP140 peptide, coactivator displacement
Property: IC50

Recorded results for 6 compounds are shown here.
INSERT INTO measurements (compound, property, readout_value) VALUES
  ('CC(C)(C)OC(=O)CCc1c[nH]c2ccc(CC(=O)NC(c3ccccc3)c3ccccc3N)cc12 (stereo not drawn)', 'IC50', '1 to 10 µM'),
  ('O=C(O)Cc1c[nH]c2ccc(CC(=O)NC(c3ccccc3)c3ccccc3N3CCCCC3)cc12 (stereo not drawn)', 'IC50', '1 to 10 µM'),
  ('CC(C)CC(NC(=O)Cc1ccc2[nH]cc(CCC(=O)OC(C)(C)C)c2c1)c1ccccc1OC(C)C (stereo not drawn)', 'IC50', '< 1 µM'),
  ('Cc1ccc(C(NC(=O)Cc2ccc3[nH]cc(CCC(=O)O)c3c2)c2ccccc2)c(N2CCCC2)c1 (stereo not drawn)', 'IC50', '< 1 µM'),
  ('Cc1ccc(C(NC(=O)Cc2ccc3[nH]cc(CCC(=O)O)c3c2)c2cccnc2)c(C)c1 (stereo not drawn)', 'IC50', '1 to 10 µM'),
  ('CCOC(=O)CCCc1c[nH]c2ccc(CC(=O)NC(c3ccccc3)c3ccccc3N3CCCCC3)cc12 (stereo not drawn)', 'IC50', '< 1 µM');

*Q* I'd like to know its IC50. The compound in question is COC(=O)Cc1c[nH]c2ccc(CC(=O)NC(c3ccccc3)c3ccc(Cl)cc3N3CCCC3)cc12 (stereo not drawn)
*A* < 1 µM

*Q* # lookup: IC50 of CC(C)CC(NC(=O)Cc1ccc2[nH]cc(CCC(=O)OC(C)(C)C)c2c1)c1ccccc1N1CCOCC1 (stereo not drawn)
*A* 1 to 10 µM

*Q* For Cc1ccc(C(NC(=O)Cc2ccc3[nH]cc(CCC(=O)O)c3c2)c2ccccc2)c(NC(C)C)c1 (stereo not drawn) , what is its reported IC50?
*A* < 1 µM

*Q* Report IC50 for Cc1ccc(C(CC(C)C)NC(=O)Cc2ccc3[nH]cc(CCC(=O)O)c3c2)c(N(C)C)c1 (stereo not drawn) please.
*A* < 1 µM

*Q* I would be grateful if you could share the reported IC50 for Cc1ccc(C(NC(=O)Cc2ccc3[nH]cc(CCC(=O)OC(C)(C)C)c3c2)c2ccccc2)c(N2CCCCC2)c1 (stereo not drawn) .
*A* < 1 µM

*Q* Query: IC50; subject: CC(C)CC(NC(=O)Cc1ccc2[nH]cc(CCC(=O)O)c2c1)c1ccccc1N1CCCCC1 (stereo not drawn)
*A* < 1 µM
